biological target: T1, wild-type HIV-1 capsid protein (WT CA) (HIV-1 (pLAI.2), UniProt P03348 133-363, biotin (EZ-link Sulfo-NHS-LC-LC-biotin, 1 biotin per molecule) in the SPR only); experiment: SPR; Biacore T100; minimally biotinylated WT CA or CA 4Mu hexamer captured on neutravidin on CM5 chips, CAI injected (100 µM and 3-fold dilutions); 50 mM sodium phosphate pH 7.5, 150 mM NaCl, 0.01% P20; steady-state one-site fit; details: both partners purified
T1 construct: HIV-1 capsid protein (CA), the 231 residues of wild-type CA amplified from the infectious HIV-1 cDNA plasmid pLAI.2; The 5' primer added a codon for an N-terminal methionine; untagged (pET30a NdeI/XhoI, stop codon); also called CA FL; full-length wild-type capsid protein; source: E. coli BL21(DE3), purified (ammonium sulfate cut, two rounds of polymerization/depolymerization, Q-HP flow-through); …
PARAMETER MEASURED: Kd (nM)
All answers are understood in nM, so give the number only.

(Q) Item under review: ITFEDLLDYYGP (source: synthetic peptide, bought: AnaSpec Inc) [CAI peptide] . Reported Kd?
(A) 1380
